biological target: sigma-1 receptor (Cavia porcellus, UniProt Q60492); construct: guinea pig brains were homogenized; from tissue; host or cells: guinea pig brain membranes; test: Sigma-1 receptor binding ([3H]-(+)-pentazocine, brain membranes); settings: compound concentration 0.0100 μM; [3H]-(+)-pentazocine 0.5 nM; guinea pig brain membranes; read-out: Percent Inhibition Percent Concentration (μM) 0.0100 SIGMA-1 receptor
Sequence (Q60492 whole entry): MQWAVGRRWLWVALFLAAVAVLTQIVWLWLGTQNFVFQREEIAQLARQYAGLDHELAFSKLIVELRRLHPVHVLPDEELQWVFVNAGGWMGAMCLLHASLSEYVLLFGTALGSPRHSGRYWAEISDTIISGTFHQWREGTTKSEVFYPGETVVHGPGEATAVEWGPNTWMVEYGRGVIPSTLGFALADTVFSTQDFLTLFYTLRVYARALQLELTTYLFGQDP
READOUT_KIND: inhibition at 0.01 µM (%)

Below, each entry is followed by its recorded inhibition at 0.01 µM result.
CC1(C)[C@@H](CCn2ccnc2)C[C@H]1CN1CCCCC1 [compound 48] | 34.3
CC1(C)[C@@H](COCc2ccccc2)C[C@H]1CN1CCN(c2ccccc2)CC1 [compound 9] | 60
COC(=O)C[C@H]1C[C@@H](CN2CCCCC2)C1(C)C [compound 26] | 23.9

1: CC1(C)[C@H](CCO)C[C@@H]1CN1CCOCC1 [compound 20]
2: CN1CCN(C[C@@H]2C[C@H](COCc3ccccc3)C2(C)C)CC1 [compound 10]
**Q:** Which value of inhibition at 0.01 µM is numerically greater: that of 1 or that of 2 ? The response must carry the label of the picked entry.
**A:** 2

----------
biological target: sigma-1 receptor (Cavia porcellus, UniProt Q60492); construct: guinea pig brains were homogenized; from tissue; host or cells: guinea pig brain membranes; test: Sigma-1 receptor binding ([3H]-(+)-pentazocine, brain membranes); settings: compound concentration 0.0100 μM; [3H]-(+)-pentazocine 0.5 nM; guinea pig brain membranes; read-out: Percent Inhibition Percent Concentration (μM) 0.0100 SIGMA-1 receptor
READOUT_KIND: inhibition at 0.01 µM (%)

CC1(C)[C@@H](CCO)C[C@H]1CN1CCOCC1 | 17.1
CC(O)[C@@H]1C[C@H](CCN2CCOCC2)C1(C)C (stereo partly drawn) | -8.3
C[C@@H]1CN(C[C@@H]2C[C@H](CCOCc3ccccc3)C2(C)C)C[C@H](C)O1 | 94.6
CC1(C)[C@@H](CCn2cncn2)C[C@H]1CN1CCCCC1 | 2
CC1(C)[C@@H](COCc2ccccc2)C[C@H]1CN1CCC(c2ccccc2)CC1 | 48.3
CC1(C)[C@H](CCO)C[C@@H]1CN1CCCCC1 | -21.4
CC1(C)[C@@H](CCOc2ccccc2)C[C@H]1CN1CCCCC1 | 97.5

A: CC(O)(c1ccccc1)[C@@H]1C[C@H](CCN2CCCCC2)C1(C)C (stereo partly drawn)
B: CC1(C)[C@@H](CCN2CCC(Cc3ccccc3)CC2)C[C@H]1CN1CCCCC1
**Q:** Looking at recorded values for inhibition at 0.01 µM, does A or B come in lower? The response must carry the label of the picked entry.
**A:** B
(B: -0.6%, A: 75.6%)

----------
molecular target: sigma-1 receptor (Cavia porcellus, UniProt Q60492)
READOUT_KIND: Ki (nM)

Below, each entry is followed by its recorded Ki result.
CC1(C)[C@@H](CCOCc2ccccc2)C[C@H]1CN1CCCCC1 | 1.1
CC1(C)[C@H](CO)C[C@@H]1CCN1CCC(Cc2ccccc2)CC1 | 1.2
CC1(C)[C@@H](COCc2ccccc2)C[C@H]1CN1CCOCC1 | 1.3

a: CN1CCN(C[C@@H]2C[C@H](CCOCc3ccccc3)C2(C)C)CC1
b: CC1(C)[C@H](CCOCc2ccccc2)C[C@@H]1CN1CCOCC1
**Q:** Looking at recorded values for Ki, does a or b come in lower? The response must carry the label of the picked entry.
**A:** a
(a: 3.6 nM, b: 6.1 nM)
